Origin of values: PubChem BioAssay (NCI)

# Tested on: ACHN renal
# experimental_details: NCI-60 one-dose screen, 48 h (100 = growth as untreated, 0 = no growth, -100 = all killed)
# condition: 10 µM unless noted
# Procedure: Growth inhibition of the ACHN human tumor cell line is measured as a screen for anti-cancer activity. Cells are grown in 96 well plates and exposed to the test compound for 48 hours. Compounds are tested at a single concentration, which is 10^-5 M for most compounds. The reported endpoint is percent growth (GI% or GIPRCNT), where numbers from 0 - 100% represent growth inhibition, and numbers from -100% - 0 represent cell death. For example, a value of 40 represents 60% growth inhibition. […]
About 83,000 compounds went through this panel and 20% of them were active in at least one assay; those are over-represented in the sample as a whole.
Reported values of growth for individual entries

{"substance_smiles": "O=C(CSc1nccc(=O)[nH]1)Nc1ccc(-c2nc3ccccc3[nH]2)cc1", "system": "ACHN renal", "growth [%]": 101}
{"substance_smiles": "Cc1cc(C(=O)Nc2sc3c(c2C(N)=O)CCC(=O)C3)ccc1OCCN1CCCCC1", "system": "ACHN renal", "growth [%]": 91.1}
{"substance_smiles": "CC(C)(C)Nc1nc2c(OCCc3ccccc3)cccn2c1-c1ccc(O)cc1", "system": "ACHN renal", "growth [%]": 65.1}
{"substance_smiles": "Fc1ccc(-c2cc3nc(C(Cl)Cl)nc(-c4ccc(Cl)cc4)n3n2)cc1", "system": "ACHN renal", "growth [%]": -63.6}
{"substance_smiles": "O=C(N/N=C/c1ccc([N+](=O)[O-])s1)c1[nH]c2ccc(Br)cc2c1-c1ccccc1", "system": "ACHN renal", "growth [%]": 12.7}

* * *

# Test system: CAKI-1 renal
# experimental_details: NCI-60 one-dose screen, 48 h (100 = growth as untreated, 0 = no growth, -100 = all killed)
# condition: 10 µM unless noted
The panel holds about 83,000 compounds, 20% with a hit somewhere; the sample as a whole holds those more often.
growth overview

{"compound": "C#Cc1nc(C2=C(C)/C(=N/OCc3ccccc3)CC2)cs1", "system": "CAKI-1 renal", "growth (%)": -20.1}
{"compound": "CN(C)c1ccc(/C=C2\\Cc3c(F)ccc(Br)c3C2=O)cc1", "system": "CAKI-1 renal", "growth (%)": 82}
{"compound": "C#Cc1nc(C2=C(C)C(OC(C)=O)/C(=N/OC(C)=O)C2)cs1 (stereo not given)", "system": "CAKI-1 renal", "growth (%)": -50.2}
{"compound": "Cc1ccc(C(=O)Nc2cccc(C(F)(F)F)c2)cc1Nc1nc(-c2cnccn2)nc2c1cnn2C", "system": "CAKI-1 renal", "growth (%)": 48.9}
{"compound": "COc1ccc(C(=O)/C=C/c2ccc(OCc3ccc(Cl)cc3)c(OC)c2)cc1OC", "system": "CAKI-1 renal", "growth (%)": 59.7}

* * *

# System: MCF7 breast
# experimental_details: NCI-60 one-dose screen, 48 h
# condition: 10 µM unless noted
The panel holds about 83,000 compounds, 20% with a hit somewhere; the sample as a whole holds those more often. Active and inactive are the calls of the source. How the source made its calls: active means growth percent below 10; inactive means the rest.
Possible outcomes: class 1 (active), class 0 (inactive)

{"molecule": "C#C[C@]1(O)CC[C@H]2[C@@H]3CC=C4c5sc(-c6ccc(F)cn6)nc5CC[C@]4(C)[C@H]3CC[C@@]21C", "system": "MCF7 breast", "label_class": "class 0"}
{"molecule": "CC1=C(C)C(=O)C(Nc2cccc(C(F)(F)F)c2)=C(Cl)C1=O", "system": "MCF7 breast", "label_class": "class 0"}
{"molecule": "Cc1cc(=O)oc2cc(OCCCOc3ccc(/C=C/C(=O)Nc4ccc(Cl)cc4)cc3)ccc12", "system": "MCF7 breast", "label_class": "class 0"}
{"molecule": "O=c1[nH]c2ccccc2cc1CSc1ccccc1Nc1nccc(-c2ccc(C(F)(F)F)cc2)n1", "system": "MCF7 breast", "label_class": "class 0"}
{"molecule": "COC1CCN(Cc2ccc3c(NNC(=O)c4cnccn4)nc4cc(F)ccc4n23)C1 (stereo not given)", "system": "MCF7 breast", "label_class": "class 0"}
{"molecule": "CCOC(=O)c1c(Nc2ccccc2)nn2c(N)c(C#N)c(-c3ccc(F)cc3)nc12", "system": "MCF7 breast", "label_class": "class 0"}
{"molecule": "CCCSc1nc(Nc2ccc(/C(C)=N\\NC(N)=S)cc2)c(C#N)c(-c2ccc(OC)cc2)n1", "system": "MCF7 breast", "label_class": "class 0"}
{"molecule": "CN1CCc2c(sc3ncnc(N/N=C/c4ccc(Cl)c(Cl)c4)c23)C1", "system": "MCF7 breast", "label_class": "class 1"}
{"molecule": "NS(=O)(=O)c1cccc(Nc2nc(SCC(=O)c3ccc(Cl)cc3)nc3ccccc23)c1", "system": "MCF7 breast", "label_class": "class 0"}
{"molecule": "O=C(CCN1C(=O)/C(=C/c2ccccc2)SC1=S)N1CCOCC1", "system": "MCF7 breast", "label_class": "class 0"}

* * *

Form field: growth (one value per entry).
# System: PC-3 prostate
# experimental_details: NCI-60 one-dose screen, 48 h (100 = growth as untreated, 0 = no growth, -100 = all killed)
# condition: 10 µM unless noted
About 83,000 compounds went through this panel and 20% of them were active in at least one assay; those are over-represented in the sample as a whole.

{"compound": "O=C(c1ccc(Cl)cc1)C1[C@H](c2ccc(Cl)cc2)[C@@H](c2ccccc2)NC12C(=O)Nc1ccc(Br)cc12 (stereo not given in full)", "result_units": "%", "growth": 12.8}
{"compound": "N#Cc1ccc(/C=N/NC(=O)c2[nH]c3ccc(Br)cc3c2-c2ccccc2)s1", "result_units": "%", "growth": 25}
{"compound": "COc1ccc(C(=O)c2cc(C(=O)/C=C/c3c(Cl)cccc3Cl)c3cc(C)ccn23)cc1", "result_units": "%", "growth": 91.3}
{"compound": "CN(C)c1ccc(/C=C2\\Cc3c(F)ccc(Br)c3C2=O)cc1", "result_units": "%", "growth": 92}
{"compound": "O=C(N/N=C/c1ccco1)c1[nH]c2ccc(Br)cc2c1-c1ccccc1", "result_units": "%", "growth": 30.2}
{"compound": "COc1cccc(-c2nn(-c3ccccc3)cc2-c2ccnc(N3CCN(C(=O)c4ccccc4)CC3)c2)c1", "result_units": "%", "growth": 46.6}
{"compound": "Nc1c(C(=O)Nc2ccc(C(F)(F)F)cc2)sc2nc(-c3cnccn3)cc(-c3cccs3)c12", "result_units": "%", "growth": 42.2}
{"compound": "Cc1cccc2sc(/N=C(\\N)C(Br)Br)nc12", "result_units": "%", "growth": 40.8}
{"compound": "O=C(N/N=C/c1ccc([N+](=O)[O-])o1)c1[nH]c2ccc(Br)cc2c1-c1ccccc1", "result_units": "%", "growth": 16.2}
{"compound": "CN(C)CCCNc1c2ccccc2nc2c1oc1ccc(Cl)cc12", "result_units": "%", "growth": 47.2}

* * *

# Tested on: T-47D breast
# experimental_details: NCI-60 one-dose screen, 48 h (100 = growth as untreated, 0 = no growth, -100 = all killed)
# condition: 10 µM unless noted
Compounds without any hit were thinned out: in the full panel of roughly 83,000, 20% have a hit.
Consider the cut-off 30%. If the recorded growth is strictly smaller, the label is True; if not, the label is False.

{"compound": "Cn1ccnc1C(=O)/C=C/c1ccc(NC(=O)Nc2ccc(Cl)cc2)cc1", "label_class": "False"}
{"compound": "CC(C)(C)OC(=O)N1C(=O)c2c(c3c4ccccc4[nH]c3c3ccc4ccccc4c23)C1=O", "label_class": "False"}
{"compound": "CN(C)CCCNc1c2ccccc2nc2c1oc1ccc(Cl)cc12", "label_class": "False"}
{"compound": "COc1ccc(NC2=CC(=O)C(C)=C(C)C2=O)cc1", "label_class": "False"}
{"compound": "O=C1C2=C(C(=O)c3c(O)cccc31)C(c1ccco1)c1sc(=O)[nH]c1S2 (stereo not given)", "label_class": "True"}

* * *

# Test system: PC-3 prostate
# experimental_details: NCI-60 one-dose screen, 48 h (100 = growth as untreated, 0 = no growth, -100 = all killed)
# condition: 10 µM unless noted
This is part of a sample that, as a whole, favours compounds with a hit. Of some 83,000 tested, about 20% had one in any assay.
Classify as follows. Reported growth greater than or equal to 70%: met. Reported growth below: not met.

{"compound": "CN(C)c1ccc(/C=c2\\sc3nc4ccccc4n3c2=O)cc1", "label_class": "met"}
{"compound": "CC(C)(O)c1cncc(-c2ccc3ncnc(N4CCc5cc(F)c(Cl)cc54)c3c2)c1", "label_class": "not met"}
{"compound": "COc1ccccc1/C=C/C=N/NC1=NC2C(S1)N(C)C(=O)N2C (stereo not given)", "label_class": "not met"}
{"compound": "CO/N=C1\\CCc2c(sc(NC(=O)c3cccc(C(F)(F)F)c3)c2C(N)=O)C1", "label_class": "not met"}
{"compound": "CC(C)(C)OC(=O)N1C(=O)c2c(c3c4ccccc4[nH]c3c3ccc4ccccc4c23)C1=O", "label_class": "not met"}
{"compound": "N#Cc1c(-c2ccc(Cl)cc2)nc2c(-c3ccccc3)c(Nc3ccccc3)nn2c1N", "label_class": "not met"}
{"compound": "COc1cc(-c2nc3ccc(-c4nnc(SCC(=O)Nc5ccc(C(C)=O)cc5)o4)cc3[nH]2)cc(OC)c1OC", "label_class": "met"}
{"compound": "N#Cc1nc(-c2ccccc2)oc1S(=O)(=O)N1CCCCC1", "label_class": "met"}
{"compound": "CC(=O)Nc1cc(F)cc(-c2ccc3[nH]cc(-c4ccccc4)c3n2)c1", "label_class": "not met"}
